Experiment Notes: Solubility test (thermodynamic solubility, HPLC external standard)
Type: physicochemical
Condition Details: aqueous buffer, thermodynamic from solid; pH=7.4 phosphate buffer, 25° C., shaken 24 hours; read-out: Water Solubility (PH = 7.4)
Give measured solubility at 24 h for each item. Keep answers brief.
The reply should contain only the number, in µg/mL.

Field solubility at 24 h (entry "CN(C)C1(C(=O)N2CCN(C(=O)c3cc(Oc4n[nH]c(=O)c5ccccc45)ccc3F)CC2)CC1" ) reads 1440

Field solubility at 24 h (entry "CC(C)N1CCN(C(=O)c2cc(Oc3n[nH]c(=O)c4ccccc34)ccc2F)CC1" ) reads 650

Field solubility at 24 h (entry "CNC1(C(=O)N2CCN(C(=O)c3cc(Oc4n[nH]c(=O)c5ccccc45)ccc3F)CC2)CCC1" ) reads 630

Field solubility at 24 h (entry "CCC(=O)N1CCN(C(=O)c2cc(Oc3n[nH]c(=O)c4ccccc34)ccc2F)CC1" ) reads 660
